Values from patent US4496590A

- Measurement target: lipoxygenase (Rattus norvegicus)
- Construct: Single cell suspensions of RBL-1 cells are homogenized to obtain the microsomal fraction containing lipoxygenase and cyclooxygenase; endogenous in cells; host or cells: RBL-1 (rat basophilic leukemia) cells, homogenate / microsomal fraction
- Sequence (P12527 1-673): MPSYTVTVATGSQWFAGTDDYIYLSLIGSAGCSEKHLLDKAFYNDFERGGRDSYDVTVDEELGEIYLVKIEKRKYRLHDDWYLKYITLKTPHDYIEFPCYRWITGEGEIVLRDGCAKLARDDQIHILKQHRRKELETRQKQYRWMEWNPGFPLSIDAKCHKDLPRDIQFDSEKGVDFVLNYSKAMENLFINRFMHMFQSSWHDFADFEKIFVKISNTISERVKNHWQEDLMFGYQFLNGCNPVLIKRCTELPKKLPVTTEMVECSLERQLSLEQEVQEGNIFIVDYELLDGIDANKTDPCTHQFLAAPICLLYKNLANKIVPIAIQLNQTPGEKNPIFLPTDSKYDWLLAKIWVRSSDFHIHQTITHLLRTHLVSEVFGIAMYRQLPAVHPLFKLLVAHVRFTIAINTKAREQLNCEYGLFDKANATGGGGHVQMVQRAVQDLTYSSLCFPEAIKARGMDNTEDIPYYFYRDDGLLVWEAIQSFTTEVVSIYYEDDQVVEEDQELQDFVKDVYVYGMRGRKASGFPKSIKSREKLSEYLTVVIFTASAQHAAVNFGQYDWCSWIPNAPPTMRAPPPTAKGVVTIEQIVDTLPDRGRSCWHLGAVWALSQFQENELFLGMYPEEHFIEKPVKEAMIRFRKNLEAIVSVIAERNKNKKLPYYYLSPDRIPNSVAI
- Assay explanation: inhibition of lipoxygenase derived from rat basophilic leukemia (RBL-1) cells (L1 5,12-di-HETE and L2 5-HETE formation)
- Assay type: biochemical
- Study conditions: 1 μM, RBL-1 enzyme, L1 5,12-di-HETE; read-out: % Inhibition L1 (lipoxygenase product 5,12-di-HETE)
inhibition at 1 µM values for the compounds below.
Reply with just the number (in %).

The cases that follow already have their inhibition at 1 µM on record.
• COc1ccc(N=C2C=CC(=O)C=C2)c(CO)c1 = 85
• CC(O)c1ccccc1Nc1ccc(O)cc1 (stereo not shown) = 86
• OCc1ccccc1Nc1ccc(O)cc1 [Example 2c, 2-(4-Hydroxyphenylamino)benzenemethanol] = 84
• OCc1ccc(Cl)cc1Nc1ccc(O)cc1 = 82
• COc1ccc(Nc2ccc(O)cc2)c(CO)c1 = 88

Please give measured inhibition at 1 µM of the following entry: COc1ccc(Nc2ccc(O)cc2)c(C(C)O)c1 (stereo not shown)
89

Please give measured inhibition at 1 µM of the following entry: OCc1cc(Cl)ccc1Nc1ccc(O)cc1
81
